The origin of these recorded values is patent US11266650B2.

- Assay text: Pharmacokinetic test in SD male rats (Experimental Examples 11, 12, 15)
- Type: in vivo
- Measurement parameters: rat, plasma, po, 10 mg/kg, oral 10 mg/kg in 0.5% MC (Exp. 15-1)

| Molecule | AUC(0-inf) (ng·h/mL) |
| --- | --- |
| O[C@@H]1[C@H](O)CS[C@H]1n1cnc2c(NCc3cccc(Cl)c3)nc(Cl)nc21 [Example 2] | 41400 |

###

- Assay text: Pharmacokinetic test in SD male rats (Experimental Examples 11, 12, 15)
- Format: in vivo
- Measurement parameters: plasma, iv, rat, I.V., 5 mg/kg, read-out: Vss
Assay endpoint: Vd (L/kg)

| Chemical smiles | Endpoint result |
| --- | --- |
| O[C@@H]1[C@H](O)CS[C@H]1n1cnc2c(NCc3cccc(Cl)c3)nc(Cl)nc21 | 0.881 |

###

- Assay text: Pharmacokinetic test in SD male rats (Experimental Examples 11, 12, 15)
- Format: in vivo
- Measurement parameters: rat, plasma, iv, 2 mg/kg

| Compound | AUC(0-t), ng·h/mL |
| --- | --- |
| O[C@@H]1[C@H](O)CS[C@H]1n1cnc2c(NCc3cccc(Cl)c3)nc(Cl)nc21 [Example 2] | 5200 |

###

- Assay text: Pharmacokinetic test in SD male rats (Experimental Examples 11, 12, 15)
- Assay type: in vivo
- Measurement parameters: rat, plasma, po, 10 mg/kg, 10 mg/kg (Exp. 12-2)

| Chemical smiles | Units symbol | Cmax |
| --- | --- | --- |
| O[C@@H]1[C@H](O)CS[C@H]1n1cnc2c(NCc3cccc(Cl)c3)nc(Cl)nc21 | ng/mL | 2710 |

###

- Assay text: Pharmacokinetic test in SD male rats (Experimental Examples 11, 12, 15)
- Assay type: in vivo
- Measurement parameters: rat, plasma, po, 10 mg/kg, oral 10 mg/kg in Vehicle: 5% DMSO, 40% PEG400 and 55% DW (Exp. 15-2)

| Chemical smiles | AUC(0-t) |
| --- | --- |
| O[C@@H]1[C@H](O)CS[C@H]1n1cnc2c(NCc3cccc(Cl)c3)nc(Cl)nc21 | 26500 ng·h/mL |

###

- Assay text: Pharmacokinetic test in dogs (Experimental Example 14)
- Assay type: in vivo
- Measurement parameters: dog, plasma, po, 10 mg/kg, G3, PO, powder state in a capsule

| Chemical smiles | Units symbol | half-life |
| --- | --- | --- |
| O[C@@H]1[C@H](O)CS[C@H]1n1cnc2c(NCc3cccc(Cl)c3)nc(Cl)nc21 | h | 5.53 |

###

- System name: human A1 adenosine receptor (hA1) (Homo sapiens, UniProt P30542)
- Construct: expressed in transfected cells; host or cells: CHO cells (ATCC No. CCL-61)
- Sequence (P30542 whole entry): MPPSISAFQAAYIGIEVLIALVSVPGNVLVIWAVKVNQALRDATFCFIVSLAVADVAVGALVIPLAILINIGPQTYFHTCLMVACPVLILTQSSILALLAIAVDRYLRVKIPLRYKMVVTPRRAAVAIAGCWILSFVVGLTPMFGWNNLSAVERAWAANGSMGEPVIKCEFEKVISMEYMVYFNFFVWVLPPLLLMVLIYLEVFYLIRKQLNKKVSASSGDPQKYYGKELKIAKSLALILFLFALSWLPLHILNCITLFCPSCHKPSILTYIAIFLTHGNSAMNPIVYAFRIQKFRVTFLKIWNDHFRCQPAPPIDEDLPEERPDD
- Assay text: Binding affinity for human A1 adenosine receptor expressed in CHO cells ([3H]CCPA)
- Measurement parameters: 10 μM (table footnote); read-out: percentage inhibition of specific binding, hA1
Assay endpoint: inhibition at 10 µM (%)

| Compound | System name | Assay endpoint | Endpoint result |
| --- | --- | --- | --- |
| O[C@@H]1[C@H](O)CS[C@H]1n1cnc2c(NCc3cccc(Br)c3)nc(Cl)nc21 [Example 3] | human A1 adenosine receptor (hA1) (Homo sapiens, UniProt P30542) | inhibition at 10 µM | 34.2 |
| CNc1nc(Cl)nc2c1ncn2[C@@H]1SC[C@H](O)[C@@H]1O [Example 10] | human A1 adenosine receptor (hA1) (Homo sapiens, UniProt P30542) | inhibition at 10 µM | 55.4 |
| OC1CO[C@@H](n2cnc3c(NCc4cccc(I)c4)nc(Cl)nc32)C1O (stereo partly drawn) [Example 16] | human A1 adenosine receptor (hA1) (Homo sapiens, UniProt P30542) | inhibition at 10 µM | 37.7 |
| O=C(O)c1cccc(CNc2nc(Cl)nc3c2ncn3[C@@H]2SC[C@@H](O)[C@H]2O)c1 [Example 9] | human A1 adenosine receptor (hA1) (Homo sapiens, UniProt P30542) | inhibition at 10 µM | 13.1 |
| O[C@@H]1[C@H](O)CS[C@H]1n1cnc2c(NCc3cccc(F)c3)nc(Cl)nc21 [Example 1] | human A1 adenosine receptor (hA1) (Homo sapiens, UniProt P30542) | inhibition at 10 µM | 19.8 |
| COc1ccc(Cl)cc1CNc1nc(Cl)nc2c1ncn2[C@@H]1SC[C@@H](O)[C@H]1O [Example 6] | human A1 adenosine receptor (hA1) (Homo sapiens, UniProt P30542) | inhibition at 10 µM | 23.8 |
| O[C@@H]1[C@H](O)CO[C@H]1n1cnc2c(NCc3cccc(Br)c3)nc(Cl)nc21 [Example 15] | human A1 adenosine receptor (hA1) (Homo sapiens, UniProt P30542) | inhibition at 10 µM | 39.8 |
| O[C@@H]1[C@H](O)CS[C@H]1n1cnc2c(NCc3cccc4ccccc34)nc(Cl)nc21 [Example 8] | human A1 adenosine receptor (hA1) (Homo sapiens, UniProt P30542) | inhibition at 10 µM | 22 |
| COc1ccccc1CNc1nc(Cl)nc2c1ncn2[C@@H]1SC[C@@H](O)[C@H]1O [Example 7] | human A1 adenosine receptor (hA1) (Homo sapiens, UniProt P30542) | inhibition at 10 µM | 9.4 |
